# STUDY_TARGET: T1, prefusion-stabilized RSV F ectodomain (DS-Cav1), subtype B (respiratory syncytial virus subtype B)
# T1 construct: extracellular domain; also called Prefusion subtype B
# METHOD_SUMMARY: BLI, IgG on sensor
Consider the following binders; for each one, report its log10(Kd).
Give log10 of Kd, with Kd taken in nM.

Would you mind telling me what log10(Kd) value was observed for ADI-15625 (antibody, V domains shown, IgG; also called Antibody Number 190) VH: EVQLVESGAEVRKPGASVQVSCKASGYTFTSYYMHWVRQAPGHGLEWMGMIYPSGGSTSYAQKFQGRVTMTRDTSTSTVYMELSSLRSEDAAVYYCARDRAGCSGGSCYYYGMDVWGQGTTVTVSS VL: NFMLTQPPSVSVSPGQTASITCSGNKLGDKYACWYQQKPGQSPVLVISQDSKRPSGIPERFSGSNSGNTATLTISGTQAMDEADYYCQAWDSRTVVFGGGTKLTVL ? 0.42

Would you mind telling me what log10(Kd) value was observed for ADI-15557 (antibody, V domains shown, IgG) VH: QVQLVQSGAEVKRPGSSVKVSCKASGGTFSSFAINWVRQAPGQGLEWMGGLIPIFGTPNNAQKFQGRVTITADESTSTAYMELSSLRSEDTAVYYCASLRYFDWQPGGSYWFDPWGQGTLVTVSS VL: QPGLTQPPSVSVAPGKTARIACGGDNIGTKGVHWYQQKPGQAPVLVIYYDSDRPSGIPERFSGSNSGNTATLTISGVEAGDEADYYCQVWDTIDDHKDGLFGGGTKLTVL ? -0.21

Would you mind telling me what log10(Kd) value was observed for ADI-15569 (antibody, V domains shown, IgG) VH: EVQLVESGAEVKKPGASVKVSCKASGYTFANYGITWVRQAPGQGLEYMGWISAYNGNTNYAQKFQGRVTMTTDTSTSTAYMELRSLRSDDTAIYYCARDPGVTAAVLLDYWGQGALVTVSS VL: DIVLTQSPLSLPVTLGQPASISCRSSQSLVFSDGNTYLSWFQQRPGQSPRRLLYKVSNRDSGVPDRFSGSGSGTDFTLTISRVEAEDVGVYYCLQGTPPYTFGQGTKVDIK ? -0.60

Would you mind telling me what log10(Kd) value was observed for ADI-15575 (antibody, V domains shown, IgG) VH: QVQLVQSGAEVKKPGASLMVSCSASGYIFNSDINWVRQAPGQGLEWMGWMNPKNGHTGYAQEFEGRVSMTRNSSKTIAYLQLSSLTYEDTAVYYCVYDFWSDDSVKWGRGTLVTVSS VL: QSVVTQPPSVSGAPGQSVAISCSGSSSNIGPGYDVHWYQQLPGSAPKLLIYGDNNRPSGVPERFSTSKSGTSASLAITGLQAEDEADYYCQSFDSSLRGYVFGTGTKVTVL ? 0.62

Would you mind telling me what log10(Kd) value was observed for ADI-15582 (antibody, V domains shown, IgG) VH: QVQLVQSGGEVKKPGASVKVSCKASGYTFISYGITWVRQAPGQGPEWMGWISPYNGDTNYAQKLQGRVTMTTDTSTTTAYMELRSLRSDDTAIYYCARRYDILTGGGWFDSWGQGTLVTVSS VL: DIVMTQSPSSLSASVGDRVTINCRASQSIISYLNWYQQKPGKAPELLIYAASSLQSGVPSRFSGSGSGTEFTLTISSLQPEDFATYYCQQSYSTPLSFGPGTKVEIK ? 0.37
